The values you see were collected from ChEMBL document CHEMBL1201862.

Readings of GI50 for the listed compounds
Test system: NCI-H23
ASSAY_DETAILS: NCI tumour cell line growth inhibition, 48 h
Calls of active or inactive are those of the source. Rule as the data show it: active = GI50 up to about 1.1 µM and inactive = higher.
PARAMETER_MEASURED: GI50

COC(=O)C1CCC2(C)[C@H](CCC3O[C@]32C)[C@@]1(C)CC(=O)c1ccoc1 (stereo partly specified) :: 71 µM (inactive)
CCOC(=O)C(Cc1c(-c2[nH]c3ccccc3c2CC(NC(=O)CNC(C)=O)C(=O)OCC)[nH]c2ccccc12)NC(=O)CNC(C)=O (stereo unspecified) :: > 100 µM (inactive)
Cc1cccc(-c2nnc(S)[nH]2)c1 :: > 100 µM (inactive)
COc1cc(S(=O)(=O)Nc2ccc(-c3csc(N4C(=O)C(C)SC4c4cccc(Oc5ccccc5)c4)n3)cc2)ccc1Cl (stereo unspecified) :: 33 µM (inactive)
CC(=O)/C(=C/NC(=S)c1cccnc1)C(=O)Nc1ccccc1C :: > 100 µM (inactive)
CC1(C)O[C@@H]2COC(=O)[C@@H]2O1 :: > 100 µM (inactive)
C=C[C@@H](C)[C@H](NS(=O)(=O)c1ccc(C)cc1)C(=O)OCC :: 39.4 µM (inactive)
O=c1[nH]nc(-c2cccc([N+](=O)[O-])c2)[nH]1 :: > 100 µM (inactive)
COC(=O)CC(C(C(C)=O)C(=O)OCc1ccccc1)N1C(=O)OCC1c1ccccc1 (stereo unspecified) :: > 100 µM (inactive)
c1ccc(-c2sc(-c3ccccc3)c3c2C2CCC3C2)cc1 :: 33.5 µM (inactive)
Clc1ccc(CCn2cncn2)c(Cl)c1 :: > 100 µM (inactive)
Cc1n[nH]c(=O)n1/N=C/c1cccs1 :: > 100 µM (inactive)
c1ccc(C2[C@@H]3CCCc4ccccc4C3=NN2c2ccccc2)cc1 (stereo partly specified) :: 61 µM (inactive)
COc1ccc(C(=O)C(c2ccc(OC)cc2)C2OC(=O)C(Cl)=C2Cl)cc1 (stereo unspecified) :: > 100 µM (inactive)
COC(=O)C12C3C4C1C1C2C3C41C(=O)OC(C)(C)C (stereo unspecified) :: > 100 µM (inactive)
CCOC(=O)C1(C)CCCc2sc(N)c(C#N)c21 (stereo unspecified) :: > 100 µM (inactive)
Nc1ccc(-c2nc3ccccc3s2)cc1Cl :: 69.3 µM (inactive)
COc1ccccc1-n1cnc2c1=NC(C)(C)NC=2C(N)=O :: > 100 µM (inactive)
COc1cc(C2c3cc4c(cc3C(=O)C3CCC(=O)N32)OCO4)cc(OC)c1O (stereo unspecified) :: > 50 µM (inactive)
CCOc1cc2oc(C)cc(=O)c2c(OC)c1/C=N/c1ccc(Cn2c(C)nc3ccccc32)cc1 :: > 100 µM (inactive)
CCCCCCCCCCCCCCCCOP(=O)(O)OCC(N)C(=O)O (stereo unspecified) :: 27 µM (inactive)

----------
Here, each record is paired with measured GI50 data.
System: ACHN
ASSAY_DETAILS: NCI tumour cell line growth inhibition, 48 h
Calls of active or inactive are those of the source. Rule as the data show it: active = GI50 up to about 1.1 µM and inactive = higher.
PARAMETER_MEASURED: GI50

COc1cc(OC)cc(-c2nc(O)c3ccccc3n2)c1 :: > 100 µM (inactive)
S=C(Nc1cccc(C2(N3CCCCC3)CCCCC2)c1)Nc1cccc(C2(N3CCCCC3)CCCCC2)c1 :: 23.9 µM (inactive)
COc1ccc2nc3c(nc2c1)C(C)(C)C=C3c1ccc(Br)cc1 :: > 100 µM (inactive)
